Can you tell me thermal shift delta Tm for the items I'm about to list?
tested on: LOC_OS01G01410-cb001; experiment: thermal shift delta Tm vs DMSO control; higher = stronger stabilization (binding); conditions: 12.5 µM; protein concentration 2 µM;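 further: purified Escherichia coli-expressed rice kinase domain construct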
Give the quantity in °C, number only.

Ask: Need thermal shift delta Tm of CC(C)(O)CNc1ncc(-c2ccnc(Nc3ccnc(Cl)c3)n2)c(CC2CC2)n1 , thanks.
Reply: 0.77

Ask: Queued: COc1cc(Nc2ncc(F)c(Nc3ccc4c(n3)N(COP(=O)(O)O)C(=O)C(C)(C)O4)n2)cc(OC)c1OC [R788 (Fostamatinib) Disodium]
Reply: 0.8

Ask: # repeat for Cc1[nH]c(/C=C2\C(=O)Nc3ccccc32)c(C)c1CCC(=O)O [Orantinib (TSU-68, SU6668)]
Reply: 4.79

Ask: Another compound: Cc1ccc(NC(=O)Nc2cc(C(F)(F)F)ccc2F)cc1Nc1ccc2c(c1)NC(=O)/C2=C\c1ccc[nH]1
Reply: 0

Ask: Cool, now COc1ccc(-c2ccc3ncc4c(c3c2)n(-c2ccc(N3CCNCC3)c(C(F)(F)F)c2)c(=O)n4C)cn1
Reply: 1.5

Ask: Subsequent entry: COc1cccc(-c2cc(=O)c3ccccc3o2)c1N
Reply: 1.2

Ask: Please answer likewise for COc1cc2c(c(OC)c1OC)-c1c(cc3c(c1OC)OCO3)CC(C)C(C)C2 (stereo not drawn) [Schisandrin B (Sch B)]
Reply: 0.01

Ask: And then CC(C)c1cnn2c(NCc3ccccc3-n3cccn3)nc(OC3CCCNC3)nc12 (stereo not drawn) , what is it?
Reply: 0

Ask: Now this one: Cc1nc(-c2cn3c(n2)-c2ccc(-c4cnn(C(C)(C)C(N)=O)c4)cc2OCC3)n(C(C)C)n1
Reply: 2.11

Ask: Now give it for CCn1c(=O)c(-c2cc[nH]n2)cc2c(C)nc(N)nc21 too.
Reply: 0.43

Ask: Moving on to NC(=O)c1ccc(N(C(N)=O)c2c(F)cccc2F)nc1-c1ccc(F)cc1F
Reply: 0.34

Ask: Moving on to the next compound: CCN(CC)CCNC(=O)c1c(C)[nH]c(/C=C2\C(=O)Nc3ccc(F)cc32)c1C [Sunitinib]
Reply: 3.95

Ask: Repeat for the following compound: CNC(=O)c1cc(Oc2ccc(NC(=O)Nc3ccc(Cl)c(C(F)(F)F)c3)c(F)c2)ccn1
Reply: 2.09

Ask: Another: Cc1cc(Nc2cc(N)ncn2)c(=O)n2c1C(=O)NC21CCCCC1
Reply: 0.09

Ask: Now try Oc1ccc(-c2nc(-c3ccc(F)cc3)c(-c3ccncc3)[nH]2)cc1 .
Reply: 1.39

Ask: COC(=O)[C@]12CCC(C)(C)C[C@H]1[C@H]1C(=O)C=C3[C@@]4(C)C=C(C#N)C(=O)C(C)(C)[C@@H]4CC[C@@]3(C)[C@]1(C)CC2 ?
Reply: -2.64

Ask: And for N#CC(=C(/N)Sc1ccccc1N)/C(C#N)=C(\N)Sc1ccccc1N ?
Reply: 1.35

Ask: Would you mind doing Cc1cc(C(C)Nc2ccccc2)c2nc(N3CCOCC3)cc(=O)n2c1 (stereo not drawn) as well?
Reply: 1.33

###

system: LOC_OS02G17970-cb001; experiment: thermal shift delta Tm vs DMSO control; higher = stronger stabilization (binding); conditions: 12.5 µM; protein concentration 2 µM
endpointLabel: thermal shift delta Tm (°C)
Numeric answer only, unit °C assumed.

Ask: Given the entry COc1ccc(/C=C/C(=O)C2(C(=O)/C=C/c3ccc(OC)c(OC)c3)CCCCC2)cc1OC , what thermal shift delta Tm was observed with LOC_OS02G17970-cb001?
Reply: 0.38

Ask: Proceed to C1=N/C2=N/c3ccc(OCCN4CCCC4)c(c3)COC/C=C/COCc3cccc(c3)C(=C1)N2 [Pacritinib (SB1518)]
Reply: 0.42

Ask: What do you get for Oc1c(F)cc(-c2cnccc2-c2ccc(N3CCOCC3)cc2)cc1F ?
Reply: 0.29

Ask: Would you mind doing COc1ccc(-c2nc(N3CCOCC3)c3sc(CN(C)c4ncc(C(=O)NO)cn4)cc3n2)cn1 as well?
Reply: 0.14

Ask: Queued: C=CC(=O)Nc1cccc(Nc2nc(Nc3ccc(N4CCN(C(C)=O)CC4)cc3OC)ncc2C(F)(F)F)c1 [Rociletinib (CO-1686, AVL-301)]
Reply: 0.49

Ask: Similarly, C=CC(=O)Nc1cccc(Sc2nc(Nc3ccc(N4CCN(C)CC4)cc3)ncc2Cl)c1 ?
Reply: 0.58

Ask: How about CC(C)(C)c1cc(/C=C(\C#N)C(N)=S)cc(C(C)(C)C)c1O [Tyrphostin AG 879] ?
Reply: 3.25

Ask: And for CN(C)Cc1cccc(N=C(c2ccccc2)c2c(O)[nH]c3cc(C(=O)N(C)C)ccc23)c1 ?
Reply: 1.25

###

system: LOC_OS01G57100-cb003; assay: thermal shift delta Tm vs DMSO control; higher = stronger stabilization (binding); conditions: 12.5 µM; protein concentration 2 µM
endpointLabel: thermal shift delta Tm (°C)
Please state the figure in °C; there is no need to write the unit.

Ask: Query: thermal shift delta Tm; subject: CCC(=O)Nc1cccc(Oc2nc(Nc3ccc(N4CCN(C)CC4)cc3OC)ncc2Cl)c1
Reply: 0.87

Ask: Moving on to the next compound: CNC(=O)CN1CCC(Oc2cc3c(Nc4cccc(Cl)c4F)ncnc3cc2OC)CC1
Reply: 0.77

Ask: Thanks! And CO[C@H]1CC[C@H](N2C(=O)CNc3ncc(-c4ccc(C(C)(C)O)nc4)nc32)CC1 ?
Reply: -0.57

Ask: Then CNC(=O)c1cc(Oc2ccc(NC(=O)Nc3cc(C(C)(C)C)nn3-c3ccc4ncccc4c3)c(F)c2)ccn1 ?
Reply: 2.72

###

tested on: LOC_OS05G28520-cb001; assay: thermal shift delta Tm vs DMSO control; higher = stronger stabilization (binding); conditions: 12.5 µM; protein concentration 2 µM
Exercise: for every item that follows, state its recorded thermal shift delta Tm.
# number only, unit °C dropped from output

Ask: What reported thermal shift delta Tm corresponds to COc1ccc(/C=C/C(=O)C2(C(=O)/C=C/c3ccc(OC)c(OC)c3)CCCCC2)cc1OC on LOC_OS05G28520-cb001?
Reply: 0.12

Ask: // same read-out, input: CCn1c(C(=O)N(C2CC2)C2CC2)cc2c3c(ncn3C)c(Nc3cc(C)n(C)n3)nc21
Reply: 0.88

Ask: Another compound to look at: O=C(O)c1cc(O)c2c(c1)[C@@H]([C@H]1c3cc(C(=O)O)cc(O)c3C(=O)c3c(O[C@@H]4O[C@H](CO)[C@@H](O)[C@H](O)[C@H]4O)cccc31)c1cccc(O[C@@H]3O[C@H](CO)[C@@H](O)[C@H](O)[C@H]3O)c1C2=O [Sennoside B]
Reply: 2.58

Ask: Same read-out for Cc1ncc(CCCN(C)C)cc1Nc1ncc2c(n1)-c1ccc(C(F)(F)F)cc1NC(=S)C2 ?
Reply: 0.71

Ask: What do you get for C=CC(=O)Nc1ccc2ncnc(Nc3ccc(OCc4cccc(F)c4)c(Cl)c3)c2c1 ?
Reply: 1.71

Ask: Let us now turn to CS(=O)(=O)N1CCc2c(-c3cnc(N)nc3)nc(N3CCOCC3)nc21
Reply: 0.43

Ask: Then what about the compound Cc1cc(NC(=O)c2cccc(NC(=O)/C=C/CN(C)C)c2)ccc1Nc1nccc(-c2cccnc2)n1 ?
Reply: 1.08

Ask: Would you kindly repeat that for COc1cc(OC)c(C=C2C(=O)Nc3ccccc32)c(OC)c1 ?
Reply: 0.31

###

system: LOC_OS02G54510-cb004; test: thermal shift delta Tm vs DMSO control; higher = stronger stabilization (binding); settings: 12.5 µM; protein concentration 2 µM
endpointLabel: thermal shift delta Tm (°C)
Provide the reading as a plain figure in °C.

Ask: Notebook entry, LOC_OS02G54510-cb004 assay: thermal shift delta Tm of C[C@H](Nc1ncnc2[nH]cnc12)c1cc2ccc(F)cc2nc1-c1ccccn1 = ?
Reply: 0.11

Ask: Try this compound too: O=C(O)c1ccc2c3c1cccc3c(=O)n1c3ccccc3nc21
Reply: 0.56

Ask: Here is the next compound: CCN(CC)CCNC(=O)c1c(C)[nH]c(/C=C2\C(=O)Nc3ccc(-c4csc(-c5ccccc5)n4)cc32)c1C
Reply: 0.74

Ask: Repeat for the following compound: Cc1c(C(=O)N2CCOc3ccc(-c4ccc(N)nc4)cc3C2)ccc(S(C)(=O)=O)c1F
Reply: 0.21

Ask: Consider next the compound Cc1ccccc1CN1C2=NCCN2C(=O)C2=C1CCN(Cc1ccccc1)C2 in the same way.
Reply: 0.13

###

system: LOC_OS03G04050-cb001; experiment: thermal shift delta Tm vs DMSO control; higher = stronger stabilization (binding); details: 12.5 µM; protein concentration 2 µM
endpointLabel: thermal shift delta Tm
Give me the value, and tack the unit on after it.

Ask: For the compound shown here, Cc1ccc(Nc2nccc(N(C)c3ccc4c(C)n(C)nc4c3)n2)cc1S(N)(=O)=O [Pazopanib] , give the reported thermal shift delta Tm.
Reply: 0.35 °C

Ask: Would you mind doing N[C@@H]1CCCN(c2c(/C=C3\SC(=O)NC3=O)cccc2-c2ccccc2)C1 as well?
Reply: 0.23 °C

Ask: Next compound: O=c1c(-c2ccc(O)cc2)coc2cc(O)cc(O)c12
Reply: -0.01 °C

Ask: Okay, and CC(C)(O)CNc1ncc(-c2ccnc(Nc3ccncc3)n2)c(CC2CC2)n1 ?
Reply: 0.5 °C

Ask: Next entry: O=C(NOCCO)c1ccc2cncn2c1Nc1ccc(I)cc1F
Reply: 0.75 °C

Ask: Lookup C[C@H](Nc1ncnc2[nH]cnc12)c1cc2ccc(F)cc2nc1-c1ccccn1
Reply: 0.38 °C

Ask: Next compound: C[C@@H]1COC(Nc2ccc3ncnc(Nc4ccc(OCc5nccs5)c(Cl)c4)c3c2)=N1
Reply: 0.48 °C

Ask: Input Cn1cc(-c2ccc3nnc(Sc4ccc5ncccc5c4)n3n2)cn1
Reply: 0.63 °C

Ask: Check C[C@H]1[C@H](C)CC[C@]2(C(=O)O)CC[C@]3(C)C(=CC[C@@H]4[C@@]5(C)C[C@@H](O)[C@H](O)[C@@](C)(CO)[C@@H]5CC[C@]43C)[C@H]12 too.
Reply: 0.11 °C

Ask: Now consider O=c1nc(N2CCOCC2)oc2c(-c3cccc4c3sc3ccccc34)cccc12 .
Reply: -0.14 °C

Ask: How about CC[C@@H](N)CNc1ccnc(-c2cc(-c3cnn(C)c3)ccc2O)n1 ?
Reply: 0.27 °C

Ask: Moving on to Cc1[nH]c(/C=C2\C(=O)Nc3ccccc32)c(C)c1CCC(=O)O [Orantinib (TSU-68, SU6668)]
Reply: 0.04 °C

Ask: Request: COc1cc(OC)cc(-c2cc3cnc(N)nc3nc2NC(=O)NC(C)(C)C)c1
Reply: 0.34 °C

Ask: Further, for COc1cc2ncnc(Nc3cccc(Cl)c3)c2cc1OC ?
Reply: 0.25 °C

Ask: And what about the compound O=c1c(O)c(-c2cc(O)c(O)c(O)c2)oc2cc(O)cc(O)c12 ?
Reply: 1.12 °C

Ask: Same for CS(=O)(=O)CCNCc1ccc(-c2ccc3ncnc(Nc4ccc(OCc5cccc(F)c5)c(Cl)c4)c3c2)o1
Reply: 0.24 °C

Ask: Entry to check: Oc1c2ccccc2c2c3c(cccc13)N=N2
Reply: 0.73 °C

Ask: Same question, CCS(=O)(=O)Nc1ccc2c(c1)/C(=C(/Nc1ccc(CN3CCCCC3)cc1)c1ccccc1)C(=O)N2 this time
Reply: 0.02 °C

Ask: // next record C[C@@H]1CN(C(=O)c2ccc(NC(=O)c3cc(O[C@H](C)c4c(Cl)ccc(F)c4Cl)c(N)nn3)cc2)C[C@H](C)N1
Reply: -0.25 °C

Ask: And then Nc1ncnc2c1c(-c1cnc3[nH]ccc3c1)nn2C1CCCC1 , what is it?
Reply: 0.54 °C

Ask: Item: CC(C)CC(=O)Nc1n[nH]c2c1CN(C(=O)C1CCN(C)CC1)C2(C)C
Reply: 0.36 °C

Ask: Check COc1cc(N2CCN(C)CC2)ccc1Nc1ncc2c(n1)N(C)c1ccccc1C(=O)N2 too.
Reply: 0.17 °C

Ask: Follow-up item: CCN1CCN(Cc2ccc(-c3cc4c(N[C@H](C)c5ccccc5)ncnc4[nH]3)cc2)CC1
Reply: -0.21 °C

Ask: Another compound: C[C@@]1(C(=O)Nc2ccc(F)nc2)CCCN1c1nc(Nc2cc(C3CC3)n[nH]2)c2cccn2n1
Reply: 0.25 °C

Ask: What about this compound? CO[C@H]1C[C@@H]2CC[C@@H](C)[C@@](O)(O2)C(=O)C(=O)N2CCCC[C@H]2C(=O)O[C@H]([C@H](C)C[C@@H]2CC[C@@H](OC(=O)C(C)(CO)CO)[C@H](OC)C2)CC(=O)[C@H](C)/C=C(\C)[C@@H](O)[C@@H](OC)C(=O)[C@H](C)C[C@H](C)/C=C/C=C/C=C/1C
Reply: 0.5 °C

Ask: Record: CC(C)Nc1cc(-c2c[nH]c(C(=O)N[C@H](CO)c3cccc(Cl)c3)c2)c(Cl)cn1
Reply: 0.57 °C

Ask: Proceed to CONC(=O)c1ccccc1Nc1cc(Nc2cc(C)nn2C(C)C)ncc1Cl
Reply: 0.47 °C

Ask: Next compound: CCN(C)S(=O)(=O)Nc1ccc(F)c(C(=O)c2c[nH]c3ncc(-c4cnc(C5CC5)nc4)cc23)c1F
Reply: 0.3 °C

Ask: // repeat for CN1CCC(CNc2ccc3ncc(-c4cccc(OC(F)(F)F)c4)n3n2)CC1 [SGI-1776 free base] and report
Reply: -0.12 °C

Ask: Quick one: CCc1nc(C(N)=O)c(Nc2ccc(N3CCC(N4CCN(C)CC4)CC3)c(OC)c2)nc1NC1CCOCC1
Reply: 0.4 °C

Ask: Another: CC[C@@](C)(Nc1ccnc(-c2c[nH]c3ncccc23)n1)C(=O)NCC(F)(F)F
Reply: 0.47 °C

Ask: Follow-up item: CC(C)(C)c1cc(/C=C(\C#N)C(N)=S)cc(C(C)(C)C)c1O
Reply: 0.85 °C

Ask: Next entry: COc1ccccc1-c1cc(Nc2cccc(CS(N)(=O)=O)c2)ncn1
Reply: 0.43 °C

Ask: What about this compound? Cc1cc(Nc2cc(Cl)nc(Oc3ccc([N+](=O)[O-])cc3)n2)n[nH]1
Reply: 0.63 °C

Ask: Then CNC(=O)c1ccc(-c2cnc3ncc(Cc4ccc5ncccc5c4)n3n2)cc1F ?
Reply: 0.48 °C
